Origin of the recorded values: patent US12264134B2

Below: a set of entries, each annotated with reported IC50.
experimental target: IDO1 (Homo sapiens)
assay summary: IDO1 Cellular Assay in HeLa Cells Stimulated with IFNγ
Type: cell-based
assay conditions: read-out: HeLa Cell Potency, IC50
Numbers only here, please. The scale is nM.

These solved cases illustrate the format of a correct answer.
compound="Cc1c(N2CCN(C(=O)Cn3nc(C(=O)N4CCC(O)(CF)CC4)c4c3C[C@H]3C[C@@H]43)CC2)cccc1C(F)(F)F [Example 336]" test_result=0.78
compound="CCc1ccccc1N1CCN(C(=O)Cn2nc(C(=O)N3C[C@@H](C)O[C@@H](C)C3)c3c2CCC3)CC1 [Example 72]" test_result=125
compound="Cc1c(Cl)cccc1N1CCN(C(=O)Cn2nc(C(=O)N3CC[C@@H](O)[C@@H](F)C3)c3c2CCC(F)C3)CC1 (stereo partly shown) [Example 375]" test_result=9.03
compound="Cc1cccc(N2CCN(C(=O)Cn3nc(C(=O)N4CCN(CCO)CC4)c4c3C[C@H]3C[C@@H]43)CC2)c1C [Example 247]" test_result=0.91
compound="Cc1cccc(N2CCN(C(=O)Cn3nc(C(=O)N4CCN(C(=O)[C@H](C)O)CC4)c4c3CCC4)CC2)c1C [Example 397]" test_result=22.4
compound="O=C(Cn1nc(C(=O)N2CCC(O)CC2)c2c1CCC2)N1CCN(C2CCc3ccccc32)CC1 (single isomer, unassigned) [Example 436]" test_result=22.8

Then this compound:
Query: Specify IC50 for COc1cc(N2CCN(C(=O)Cn3nc(C(=O)N4C[C@@H](C)O[C@@H](C)C4)c4c3CCC4)CC2)ccc1C [Example 37] and stop.
Response: 234

###

experimental target: IDO1 (Homo sapiens, UniProt P14902)
Sequence (P14902 whole entry): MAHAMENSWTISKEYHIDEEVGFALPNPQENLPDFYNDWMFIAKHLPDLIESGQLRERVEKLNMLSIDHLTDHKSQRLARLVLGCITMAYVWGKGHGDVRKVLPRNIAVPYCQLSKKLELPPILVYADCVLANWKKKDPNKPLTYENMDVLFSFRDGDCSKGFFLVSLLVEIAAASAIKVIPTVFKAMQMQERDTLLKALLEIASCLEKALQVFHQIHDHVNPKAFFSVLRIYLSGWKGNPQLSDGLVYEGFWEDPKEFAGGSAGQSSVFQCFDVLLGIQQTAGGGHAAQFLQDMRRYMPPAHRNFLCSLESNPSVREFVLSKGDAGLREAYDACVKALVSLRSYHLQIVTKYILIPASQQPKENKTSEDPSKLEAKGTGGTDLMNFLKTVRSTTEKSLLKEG
assay summary: IDO1 Cellular Assay in HeLa Cells Stimulated with IFNγ
Type: cell-based
assay conditions: read-out: HeLa Cell Potency, IC50
observed property: log10(IC50) (log10 of the value in µM)
Plainly stated, the numbers are log10 of IC50 given in µM.

Query: Give me measured log10(IC50), please, for this compound: Cc1cccc(N2CCN(C(=O)Cn3nc(C(=O)N4CC5(CC(O)C5)C4)c4c3CCC4)CC2)c1C
Response: -1.32

Query: Tell me measured log10(IC50) for Cc1cccc(N2CCN(C(=O)Cn3nc(C(=O)N4CCCC4)c4c3CC(C)(C)CC4)CC2)c1C please.
Response: -0.89

Query: Identify log10(IC50) associated with the compound Cc1cccc(N2CCN(C(=O)Cn3nc(C(=O)N4CC[C@@H](N)C(F)(F)C4)c4c3CCC4)CC2)c1C (single isomer, unassigned)
Response: -1.55

###

experimental target: IDO1 (Homo sapiens)
assay summary: IDO1 Cellular Assay in HeLa Cells Stimulated with IFNγ
Type: cell-based
assay conditions: read-out: HeLa Cell Potency, IC50
Examples of molecules with documented pIC50 follow.
Please treat pIC50 as minus the base-10 logarithm of the molar concentration.

molecule=C[C@@H]1CN(C(=O)c2nn(CC(=O)N3CCN(c4ccc5c(c4)CCO5)CC3)c3c2CCC3)C[C@H](C)O1 test_result=6.75
molecule="Cc1cccc(N2CCN(C(=O)Cn3nc(C(=O)N4CC5CNC5C4)c4c3CCC4)CC2)c1C (stereo not drawn)" test_result=7.72
molecule="Cc1cccc(N2CCN(C(=O)Cn3nc(C(=O)N4CC[C@H](O)C(F)(F)C4)c4c3CCC4)CC2)c1C (single isomer, unassigned)" test_result=8.44
molecule=Cc1cccc(N2CCN(C(=O)Cn3nc(C(=O)N4C[C@@H](C)O[C@@H](C)C4)c4c3CCCCC4)CC2)c1C test_result=8.30

Query: Please give measured pIC50 of the following entry: Cc1cccc(N2CCN(C(=O)Cn3nc(C(=O)N4CCN(CC(N)=O)CC4)c4c3CCC4)CC2)c1C
Response: 8.05

Query: Please indicate pIC50 recorded for Cc1cccc(N2CCN(C(=O)Cn3nc(C(=O)N4CCC(O)CC4)c4c3C[C@H](C(F)F)C4)CC2)c1C (single isomer, unassigned)
Response: 8.37

Query: Annotate the molecule Cc1cccc(N2CCN(C(=O)Cn3nc(C(=O)N4CCC5(CC4)CN(C)C(=O)O5)c4c3CCC4)CC2)c1C with its measured pIC50.
Response: 8.24

Query: Quickly give me recorded pIC50 for Cc1cccc(N2CCN(C(=O)Cn3nc(C(=O)N4CC[C@H](O)[C@H](F)C4)c4c3CCC4)CC2)c1C [Example 97]
Response: 7.77

Query: Identify measured pIC50 corresponding to Cc1cccc(N2CCN(C(=O)Cn3nc(C(=O)N4CC[C@H](O)[C@@H](F)C4)c4c3C[C@H]3C[C@@H]43)CC2)c1C
Response: 8.55

Query: Quick one: give measured pIC50 for Cc1cccc(N2CCN(C(=O)Cn3nc(C(=O)N4CCC5NC(=O)OCC5C4)c4c3C[C@H]3C[C@@H]43)CC2)c1C (stereo partly drawn) [Example 239]
Response: 8.19

Query: # return recorded pIC50 for entry Cc1cccc(N2CCN(C(=O)Cn3nc(C(=O)N4CCCC5(CCNC5=O)C4)c4c3CCC4)CC2)c1C (stereo not drawn)
Response: 7.12

Query: Please list pIC50 recorded for the molecule C[C@@H]1CN(C(=O)c2nn(CC(=O)N3CCN(c4cc(F)ccc4F)CC3)c3c2CCC3)C[C@H](C)O1
Response: 6.36

Query: Indicate its recorded pIC50; the molecule in question is Cc1cccc(N2CCN(C(=O)Cn3nc(C(=O)N4CC5(CO)CC4C5)c4c3CCC4)CC2)c1C
Response: 7.77

Query: # return recorded pIC50 for entry Cc1c(Cl)cccc1N1CCN(C(=O)Cn2nc(C(=O)N3CCC(O)C(C)C3)c3c2C[C@H]2C[C@@H]32)CC1 (stereo partly drawn) [Example 354]
Response: 8.62

###

Entries and their measured IC50 follow.
experimental target: UniProt P14902
assay summary: IDO1 Cellular Assay in HeLa Cells Stimulated with IFNγ
Format: cell-based
assay conditions: read-out: HeLa Cell Potency, IC50
Give just the number in nM; leave the unit off.

compound_string=Cc1cccc(N2CCN(C(=O)Cn3nc(C(=O)N4CC[C@@H](O)C[C@@H]4C)c4c3CCC4)CC2)c1C observed_property=IC50 test_result=3.29

Read the next record carefully.
Query: In one line, give reported IC50 of the entry C[C@@H]1CN(C(=O)c2nn(CC(=O)N3CCN(c4ccc(F)cc4)CC3)c3c2CCC3)C[C@H](C)O1 .
Response: 337

###

Reported pIC50 is given for each of the following compounds.
experimental target: IDO1 (Homo sapiens)
assay summary: IDO1 Human Whole blood Assay
Type: cell-based
Design: Human whole blood was drawn in sodium heparin coated tubes from healthy internal donors; from tissue; host or cells: human whole blood from healthy donors, stimulated with LPS and IFNγ
assay conditions: LPS and IFNγ stimulated, 18 h, read-out: Human Whole Blood Potency, IC50
// returns pIC50 (minus log10 of molar concentration), number only

compound="Cc1cccc(N2CCN(C(=O)Cn3nc(C(=O)N4C[C@@H](C)N(C)[C@@H](C)C4)c4c3C[C@H]3C[C@@H]43)CC2)c1C [Example 235]" test_result=6.47
compound="Cc1cccc(N2CCN(C(=O)Cn3nc(C(=O)N4CC[C@H](O)[C@@H](C)C4)c4c3CCC4)CC2)c1C [Example 94]" test_result=6.46
compound="Cc1cccc(N2CCN(C(=O)Cn3nc(C(=O)N4CCC(NS(C)(=O)=O)CC4)c4c3CCC4)CC2)c1C [Example 90]" test_result=6.53

Now let's try a different one.
Query: Give reported pIC50 value for Cc1cccc(N2CCN(C(=O)Cn3nc(C(=O)N4CC[C@@H](O)[C@H](F)C4)c4c3C[C@H]3C[C@@H]43)CC2)c1C [Example 279]
Response: 7.15

###

experimental target: IDO1 (Homo sapiens, UniProt P14902)
assay summary: IDO1 Human Whole blood Assay
Assay type: cell-based
Design: Human whole blood was drawn in sodium heparin coated tubes from healthy internal donors; from tissue; host or cells: human whole blood from healthy donors, stimulated with LPS and IFNγ
assay conditions: LPS and IFNγ stimulated, 18 h, read-out: Human Whole Blood Potency, IC50
Catalogue of compounds with associated IC50
Expressed in nM, but write only the number.

Field: example entries. Status: answers known.
compound="Cc1cccc(N2CCN(C(=O)Cn3nc(C(=O)N4C[C@@H](C)O[C@@H](C)C4)c4c3[C@@H]3C[C@@H]3C4)CC2)c1C [Example 296]" reading_unit=nM test_result=543
compound="Cc1cccc(N2CCN(C(=O)Cn3nc(C(=O)N4CCC(F)(CO)CC4)c4c3CCC4)CC2)c1C [Example 293]" reading_unit=nM test_result=178
compound="Cc1cccc(N2CCN(C(=O)Cn3nc(C(=O)N4CCC5(CO)CC4C5)c4c3CCC4)CC2)c1C [Example 297]" reading_unit=nM test_result=1220
compound="Cc1cccc(N2CCN(C(=O)Cn3nc(C(=O)N4CCC(N)CC4)c4c3C[C@H]3C[C@@H]43)CC2)c1C [Example 479]" reading_unit=nM test_result=230
compound="Cc1cccc(N2CCN(C(=O)Cn3nc(C(=O)N4CCC(O)CC4)c4c3CCC4)CC2)c1C [Example 87]" reading_unit=nM test_result=2300

Here is the next item to consider.
Query: Look up IDO1 (Homo sapiens, UniProt P14902) data: IC50 of Cc1c(Cl)cccc1N1CCN(C(=O)Cn2nc(C(=O)N3CCC(OCCO)CC3)c3c2CCC(F)C3)CC1 (single isomer, unassigned) [Example 373] , then report it.
Response: 202
